system: PD brain-derived a-syn aggregates (Homo sapiens)
Construct: from tissue; host or cells: human PD donor brain, sarkosyl-insoluble 100,000 x g pellet
method_notes: Micro-radiobinding competition assay against Example-1 [^3H-1] (Table 8)
Type: binding
reported_conditions: 1 μM non-radiolabelled example compound vs Example-1 [^3H-1] ligand; human PD brain-derived a-syn aggregates
Procedure: PD brain-derived a-syn aggregates were spotted onto microarray slides. The slides were incubated with the Example-1 [^3H-1] at 6 nM or 20 nM and the example compounds (non-radiolabelled) at 1 μM and 100 nM. In some cases, the non-radiolabelled example compounds were further assessed for a range of different concentrations, varying from 0.05 nM to 2 μM. […] Quantification of the signal was performed by using the Beamage image analysis software (ai4R). […]
Listed below: Competition at 1 μM (%) values for each entry.
# unit: % | format: bare number

Observe how each entry below is paired with its result.
| compound | Competition at 1 μM (%) |
| --- | --- |
| Cn1cc(N2Cc3nn(-c4ccc(N5CC[C@@H](F)C5)nc4)cc3C2=O)cn1 [Example 26] | 108 |
| O=C1c2cn(-c3ccc(N4CC[C@@H](F)C4)nc3)nc2CN1c1cccc(O)c1 [Example 177] | 100 |
| O=C1c2cn(-c3ccc(N4CCCC4)nc3)nc2CN1c1ccc(F)cn1 [Example 115] | 98 |
| Cn1ccc(-n2cc3c(n2)CN(c2cncc(F)n2)C3=O)n1 [Example 148] | 91 |
| Cc1ccc(N2Cc3nn(-c4ccc(N5CC[C@H](F)C5)nc4)cc3C2=O)cn1 [Example 11] | 98 |

Dear colleague, I am looking for the recorded Competition at 1 μM (%) of the following compound: COc1ccc(N2Cc3nn(-c4ccc(N5CC[C@H](F)C5)nc4)cc3C2=O)cn1 [Example 9]
90

Likewise for COc1ccnc(N2Cc3nn(-c4ccc(N5CC[C@@H](F)C5)nc4)cc3C2=O)c1 [Example 76] ?
93

Likewise for O=C1c2cn(-c3ccc(N4CCCC4)nc3)nc2CN1c1cncc(F)c1 [Example 99] ?
92

Likewise for COc1ccc(N2Cc3nn(-c4ccc(N5CC[C@H](F)C5)nc4)cc3C2=O)cc1 [Example 30] ?
95

Likewise for Cc1c2c(nn1-c1ccc(N3CC[C@H](F)C3)nc1)CN(c1cccnc1)C2=O [Example 53] ?
54

###

system: PD brain-derived a-syn aggregates (Homo sapiens, UniProt P37840)
method_notes: Saturation binding of Example-4 [^3H-4] by micro-radiobinding
reported_conditions: PD homogenates
measured_attribute: pKd
The quantity pKd is defined as the negative base-10 logarithm of the molar concentration.

Dear colleague, I am looking for the recorded pKd of the following compound: [3H]C([3H])([3H])n1cc(N2Cc3nn(-c4ccc(N5CC[C@@H](F)C5)nc4)cc3C2=O)cn1 [Example-4 [^3H-4]]
7.68

###

Listed below: Competition at 100 nM (%) values for each entry.
system: PD brain-derived a-syn aggregates (Homo sapiens)
Construct: from tissue; host or cells: human PD donor brain, sarkosyl-insoluble 100,000 x g pellet
method_notes: Micro-radiobinding competition assay against Example-1 [^3H-1] (Table 8)
Assay type: binding
reported_conditions: 100 nM non-radiolabelled example compound vs Example-1 [^3H-1] ligand; human PD brain-derived a-syn aggregates
# unit: % | format: bare number

Observe how each entry below is paired with its result.
| structure_as_smiles | system | Competition at 100 nM (%) |
| --- | --- | --- |
| O=C1c2cn(-c3ccc(N4CC[C@H](F)C4)nc3)nc2CN1c1ccccc1 | PD brain-derived a-syn aggregates (Homo sapiens) | 48 |
| COc1ccc(N2Cc3nn(-c4ccc(N5CC[C@@H](F)C5)nc4)cc3C2=O)cc1 | PD brain-derived a-syn aggregates (Homo sapiens) | 87 |

Param readout= Competition at 100 nM (%); system= PD brain-derived a-syn aggregates (Homo sapiens); entry= Cc1ncccc1N1Cc2nn(-c3ccc(N4CC[C@H](F)C4)nc3)cc2C1=O ; returns value.
4

Likewise for Cc1cnccc1N1Cc2nn(-c3ccc(N4CC[C@@H](F)C4)nc3)cc2C1=O ?
34

Likewise for Cc1ccc(N2Cc3nn(-c4ccc(N5CC[C@@H](F)C5)nc4)cc3C2=O)cc1 ?
70

Likewise for Cc1c2c(nn1-c1ccc(N3CC[C@H](F)C3)nc1)CN(c1cccnc1)C2=O ?
27

Likewise for O=C1c2cn(-c3ccc(N4CC[C@H](F)C4)nc3)nc2CN1c1cccc(O)n1 ?
49

Likewise for O=C1c2cn(-c3ccc(N4CC[C@@H](F)C4)nc3)nc2CN1c1cncs1 ?
75

Likewise for O=C1c2cn(-c3ccc(N4CC[C@H](F)C4)nc3)nc2CN1c1cncc(F)c1 ?
32

Likewise for COc1ccc(N2Cc3nn(-c4ccc(N5CC[C@H](F)C5)nc4)cc3C2=O)cc1 ?
80

Likewise for COc1cc(N2Cc3nn(-c4ccc(N5CC[C@H](F)C5)nc4)cc3C2=O)ccn1 ?
95

Likewise for Cc1ccc(N2Cc3nn(-c4ccc(N5CC[C@H](F)C5)nc4)cc3C2=O)cc1 ?
73

Likewise for Cc1cccc(N2Cc3nn(-c4ccc(N5CC[C@@H](F)C5)nc4)cc3C2=O)n1 ?
58

Likewise for Cc1cccc(N2Cc3nn(-c4ccc(N5CC[C@H](F)C5)nc4)cc3C2=O)n1 ?
47

Likewise for O=C1c2cn(-c3ccc(N4CC[C@H](F)C4)nc3)nc2CN1c1cncnc1 ?
32

Likewise for COc1cncc(N2Cc3nn(-c4ccc(N5CC[C@@H](F)C5)nc4)cc3C2=O)c1 ?
33

Likewise for O=C1c2cn(-c3ccc(N4CC[C@H](F)C4)nc3)nc2CN1c1cnsc1 ?
63

Likewise for N#Cc1ccc(N2Cc3nn(-c4ccc(N5CCCC5)nc4)cc3C2=O)cc1F ?
11

Likewise for O=C1c2cn(-c3ccc(N4CC[C@@H](F)C4)nc3)nc2CN1c1ccc(O)cc1 ?
77

Likewise for O=C1c2cn(-c3ccc(N4CC[C@@H](F)C4)nc3)nc2CN1c1ccc(O)nc1 ?
56

Likewise for N#Cc1ccc(N2Cc3nn(-c4ccc(N5CC[C@@H](F)C5)nc4)cc3C2=O)nc1 ?
75

Likewise for O=C1c2cn(-c3ccc(N4CC[C@@H](F)C4)nc3)nc2CN1c1ccncc1O ?
46

Likewise for N#Cc1cncc(N2Cc3nn(-c4ccc(N5CC[C@@H](F)C5)nc4)cc3C2=O)c1 ?
67

Likewise for Cl.O=C1c2cn(-c3ccc(N4CCCC4)nc3)nc2CN1c1cnc(F)cn1 ?
80

###

system: PD brain-derived a-syn aggregates (Homo sapiens)
Construct: from tissue; host or cells: human PD donor brain, sarkosyl-insoluble 100,000 x g pellet
method_notes: Micro-radiobinding competition assay against Example-1 [^3H-1] (Table 8)
Assay type: binding
reported_conditions: 1 μM non-radiolabelled example compound vs Example-1 [^3H-1] ligand; human PD brain-derived a-syn aggregates
Listed below: Competition at 1 μM (%) values for each entry.
# unit: % | format: bare number

Observe how each entry below is paired with its result.
| compound | unit_name | reported_measurement |
| --- | --- | --- |
| Cn1cc(N2Cc3nn(-c4ccc(N5CC[C@@H](F)C5)nc4)cc3C2=O)cn1 [Example 4] | % | 92 |
| N#Cc1cc(N2Cc3nn(-c4ccc(N5CC[C@@H](F)C5)nc4)cc3C2=O)ccc1N | % | 81 |
| O=C1c2cn(-c3ccc(N4CC[C@@H](F)C4)nc3)nc2CN1c1ncccc1O | % | 93 |
| O=C1c2cn(-c3ccc(N4CC[C@H](F)C4)nc3)nc2CN1c1ccc(O)cc1 | % | 95 |
| COc1ccc(-n2cc3c(n2)CN(c2cccnc2)C3=O)cn1 | % | 85 |
| O=C1c2cn(-c3ccc(N4CCCC4)nc3)nc2CN1c1ccnc(F)c1 | % | 93 |
| Cc1ccc(N2Cc3nn(-c4ccc(N5CC[C@@H](F)C5)nc4)cc3C2=O)cn1 | % | 90 |

Dear colleague, I am looking for the recorded Competition at 1 μM (%) of the following compound: O=C1c2cn(-c3ccc(N4CC[C@@H](F)C4)nc3)nc2CN1c1cccc(O)n1
87

###

system: Abeta pathological aggregates (Homo sapiens, UniProt P05067)
Construct: Abeta pathological aggregates present in the human AD brain homogenates; from tissue; host or cells: human AD donor brain, Triton/sucrose-insoluble 100,000 x g pellet
Sequence (P05067 672-713 limits assumed): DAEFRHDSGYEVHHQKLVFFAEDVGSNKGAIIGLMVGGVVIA
method_notes: Radiobinding competition assay against [^3H]-Abeta-Ref on AD brain homogenates (example compound 1)
Format: binding
reported_conditions: displacement of [^3H]-Abeta-Ref at 10 nM, AD brain-derived homogenates
measured_attribute: Ki (nM)
# unit: nM | format: bare number

Dear colleague, I am looking for the recorded Ki of the following compound: O=C1c2cn(-c3ccc(N4CC[C@@H](F)C4)nc3)nc2CN1c1cccnc1
330

###

Listed below: Competition at 1 μM (%) values for each entry.
system: PD brain-derived a-syn aggregates (Homo sapiens)
Construct: from tissue; host or cells: human PD donor brain, sarkosyl-insoluble 100,000 x g pellet
method_notes: Micro-radiobinding competition assay against Example-1 [^3H-1] (Table 8)
Assay type: binding
reported_conditions: 1 μM non-radiolabelled example compound vs Example-1 [^3H-1] ligand; human PD brain-derived a-syn aggregates
Description: PD brain-derived a-syn aggregates were spotted onto microarray slides. The slides were incubated with the Example-1 [^3H-1] at 6 nM or 20 nM and the example compounds (non-radiolabelled) at 1 μM and 100 nM. In some cases, the non-radiolabelled example compounds were further assessed for a range of different concentrations, varying from 0.05 nM to 2 μM. […] Quantification of the signal was performed by using the Beamage image analysis software (ai4R). […]
# unit: % | format: bare number

Observe how each entry below is paired with its result.
| structure_as_smiles | system | Competition at 1 μM (%) |
| --- | --- | --- |
| Cc1ccc(N2Cc3nn(-c4ccc(N5CC[C@@H](F)C5)nc4)cc3C2=O)cc1 | PD brain-derived a-syn aggregates (Homo sapiens) | 71 |
| CC(C)n1cc(N2Cc3nn(-c4ccc(N5CC[C@@H](F)C5)nc4)cc3C2=O)cn1 | PD brain-derived a-syn aggregates (Homo sapiens) | 67 |
| O=C1c2cn(-c3ccc(N4CC[C@@H](F)C4)nc3)nc2CN1c1cnsc1 | PD brain-derived a-syn aggregates (Homo sapiens) | 98 |
| Cc1cncc(N2Cc3nn(-c4ccc(N5CC[C@@H](F)C5)nc4)cc3C2=O)c1 | PD brain-derived a-syn aggregates (Homo sapiens) | 83 |
| Cc1cnccc1N1Cc2nn(-c3ccc(N4CC[C@H](F)C4)nc3)cc2C1=O | PD brain-derived a-syn aggregates (Homo sapiens) | 58 |
| Cc1cncc(N2Cc3nn(-c4ccc(N5CC[C@H](F)C5)nc4)cc3C2=O)c1 | PD brain-derived a-syn aggregates (Homo sapiens) | 81 |
| O=C1c2cn(-c3ccc(N4CC[C@H](F)C4)cc3)nc2CN1c1cccnc1 | PD brain-derived a-syn aggregates (Homo sapiens) | 92 |
| O=C1c2cn(-c3ccc(N4CC[C@@H](F)C4)nc3)nc2CN1c1ncco1 | PD brain-derived a-syn aggregates (Homo sapiens) | 84 |
| O=C1c2cn(-c3ccc(N4CC[C@H](F)C4)nc3)nc2CN1c1cn[nH]c1 | PD brain-derived a-syn aggregates (Homo sapiens) | 75 |
| Cc1ccccc1N1Cc2nn(-c3ccc(N4CC[C@H](F)C4)nc3)cc2C1=O | PD brain-derived a-syn aggregates (Homo sapiens) | 25 |

Next compound, Competition at 1 μM (%) to be filled in.
Dear colleague, I am looking for the recorded Competition at 1 μM (%) of the following compound: Cc1cccc(N2Cc3nn(-c4ccc(N5CC[C@@H](F)C5)nc4)cc3C2=O)n1
73
